# System: NCI-H522
# method description: NCI tumour cell line growth inhibition, 48 h
Active and inactive are the calls of the source. No stated cut-off is given here; in the data, active = GI50 up to about 1.1 µM and inactive = higher.
Just give me one of these, please: active, inactive

O=C1C2Nc3ccccc3SC2C(=O)N1c1ccc(Br)cc1 (configuration not stated)
inactive
Cc1ccc(C)c(NC(=O)C(Cc2c[nH]c3ccccc23)NC(=O)OCc2ccccc2)c1 (configuration not stated)
inactive
CCOC(=O)/C(=C\NC(C)(C)C)c1nc2ccccc2[nH]1
inactive
CN(C)CCNC(=O)c1cc([N+](=O)[O-])ccn1
inactive
O=c1n(CCCCn2c(=O)n(CC3CS3)c3ccccc32)c2ccccc2n1CC1CS1 (configuration not stated)
inactive
N#CCN1CCCN(CC#N)CCN(CC#N)CCCN(CC#N)CC1
inactive
Cc1ccc(S(=O)(=O)OC2C(C3COC(C)(C)O3)OC3OC(C)(C)OC32)cc1 (configuration not stated)
inactive
CCCN(CCCCN1C(=O)c2ccccc2C1=O)CC1COc2ccccc2O1 (configuration not stated)
inactive
C/C(CC(=O)Nc1ccc(Cl)c(Cl)c1)=N/NC(=O)C[n+]1ccccc1
inactive
OC1CCN(c2c3ccccc3nc3ccccc23)CC1
inactive

Q: Could you kindly confirm the outcome this assay logged for CC(=O)Nc1ccc(/C=C/C(=O)N2CC(CCl)c3c2cc(N)c2ccccc32)cc1 (configuration not stated) ?
Ans: active

###

# Tested on: T47D
# method description: NCI tumour cell line growth inhibition, 48 h
The source made the active and inactive calls. Cut-off read from the data, not from the text of the source: active = GI50 up to about 1.1 µM and inactive = higher.
Just give me one of these, please: T (active), F (inactive)

Q: Could you kindly confirm the outcome this assay logged for CC(=O)Oc1ccc2ccc(=O)oc2c1OC(C)=O ?
Ans: F

Q: Another compound: COc1ccc(C[C@H]2NC(=O)/C=C/C[C@@H]([C@H](C)[C@H]3O[C@@H]3c3ccccc3)OC(=O)[C@H](CC(C)C)OC(=O)[C@H](C)CNC2=O)cc1
Ans: T

Q: Another compound: CC1(C)N=C(N)N=C(N)N1c1ccc(Cl)cc1
Ans: F

Q: Another compound: CCOc1cc(C2CC(c3ccc(NS(=O)(=O)c4cc([N+](=O)[O-])ccc4C)cc3)=NN2S(=O)(=O)c2cc([N+](=O)[O-])ccc2C)ccc1O (centres undefined)
Ans: F

###

# Tested on: SF-268
# method description: NCI tumour cell line growth inhibition, 48 h
Calls of active or inactive are those of the source. No stated cut-off is given here; in the data, active = GI50 up to about 1.1 µM and inactive = higher.
GI50 by entry:

Some solved cases for reference:
c1c[nH]c(Cc2nc(Cc3c[nH]cn3)c[nH]2)n1
4.65 µM (inactive)
CC1CN1c1c(C(=O)/C=C/c2ccccc2)c(-c2ccccc2)nn(C)c1=O (stereo not given)
27.9 µM (inactive)
Sc1nn2c(COc3cc(Cl)c(OCc4nnc5sc(S)nn45)cc3Cl)nnc2s1
44.6 µM (inactive)

Q: Query GI50 on SF-268 for COc1cc2c(cc1OC)-c1c(cc(OC)c(OC)c1OC)C2=O
Ans: > 100 µM (inactive)

Q: Another molecule: COc1cc(-c2oc3c(OC)c(O)c(OC)c(O)c3c(=O)c2OC)cc(OC)c1OC
Ans: 21 µM (inactive)

###

# Tested on: UACC-257
# method description: NCI tumour cell line growth inhibition, 48 h
Calls of active or inactive are those of the source. Cut-off read from the data, not from the text of the source: active = GI50 up to about 1.1 µM and inactive = higher.
GI50 by entry:

Q: Bench note: what GI50 did Cn1c(CCC#N)nc2ccc(Br)cc2c1=O show?
Ans: > 100 µM (inactive)

// provenance: ChEMBL document CHEMBL1201862
